System: H. influenzae (HINF 30063)
experimental-endpoint: MIC (µg/mL)

[a] CN1CCN(Cc2ccc(OCC(=O)N3CCN(c4ccc(N5C[C@H](CNC(=S)C6CC6)OC5=O)cc4F)CC3)cc2)CC1 [Compound 23]
[b] CCC(=S)NC[C@H]1CN(c2ccc(N3CCN(C(=O)COc4ccc(CN(C)C)cc4)CC3)c(F)c2)C(=O)O1 [Compound 13]
Qu. Out of a and b , name the one with the higher MIC. Answer by stating the label of the chosen item.
Ans. a

----------
Tested on: S. aureus (SAUR 31583)
Assay: MIC, agar dilution
Type: cell-based
Conditions: Staphylococcus aureus, S. aureus 31583, overnight at 35° C.
experimental-endpoint: MIC (µg/mL)

molecule | MIC [µg/mL]
CC(=O)NC[C@H]1CN(c2ccc(N3CCN(C(=O)COc4ccc(CN5CCN(C)CC5)cc4)CC3)c(F)c2)C(=O)O1 [Compound 24] | 16

[1] CN(C)Cc1ccc(OCC(=O)N2CCN(c3ccc(N4C[C@H](CNC(=S)C5CC5)OC4=O)cc3F)CC2)cc1 [Compound 2]
[2] O=C(COc1ccc(CN2CCOCC2)cc1)N1CCN(c2ccc(N3C[C@H](CNC(=S)C4CC4)OC3=O)cc2F)CC1 [Compound 18]
[3] CCC(=S)NC[C@H]1CN(c2ccc(N3CCN(C(=O)COc4ccc(CN(CC)CC)cc4)CC3)c(F)c2)C(=O)O1 [Compound 9]
Qu. Output the entries ranked by MIC from maximum down to minimum. // rank by listing labels in the order requested
Ans. 3, 2, 1
